# Tested on: duplex structure of DNA
# assay_text: Melting experiments (DNA-duplex stabilization)
# Format: physicochemical
# measurement_context: 1 M NaCl, 10 mM sodium phosphate buffer of pH=7; 260 nm; 1° C./min
Ends that are not written are not given here. Nct = N-((2S,3R)-1,3-dihydroxybutan-2-yl)-(4a,10a-dihydro-10,11-diazabenzo[b]fluoren-10-yl)acetamide monomer; Qut = N-(1,3-dihydroxybutan-2-yl)-10H-indolo[3,2-d]quinoline-11-carboxamide monomer; Act = N-(1,3-dihydroxybutan-2-yl)acridine-9-carboxamide monomer; code p = not defined here; Qgt = not defined here
Tm(° C.) by entry:

Before answering, review these 4 worked examples.
{"substance": "TTCCGGAA-p-Act-p-Qut: oligonucleotide 5′-TTCCGGAA-3′ carrying dimer Act-p-Qut at the 3′-end (DNA TTCCGGAA-{code p-Act-code p-Qut}; not fully specified; cysteine pairing not given here; reading uncertain; also: DNA oligonucleotide with 3'-Act-p-Qut dimer)", "assay_endpoint": "Tm(° C.)", "data_value": "44 °C"}
{"substance": "TTCCGGAA-p-Qgt: oligonucleotide 5′-TTCCGGAA-3′ carrying fluorophore Qgt at the 3′-end (DNA TTCCGGAA-{code p-Qgt}; not fully specified; cysteine pairing not given here; reading uncertain; also: DNA oligonucleotide with 3'-phosphate-linked Qgt)", "assay_endpoint": "Tm(° C.)", "data_value": "50 °C"}
{"substance": "TTCCGGAA-p-Act-p-Qut-p-Nct: oligonucleotide 5′-TTCCGGAA-3′ carrying trimer Act-p-Qut-p-Nct at the 3′-end (DNA TTCCGGAA-{code p-Act-code p-Qut-code p-Nct}; not fully specified; cysteine pairing not given here; reading uncertain; also: DNA oligonucleotide with 3'-Act-p-Qut-p-Nct trimer)", "assay_endpoint": "Tm(° C.)", "data_value": "60 °C"}
{"substance": "TTCCGGAA-p-Act: oligonucleotide 5′-TTCCGGAA-3′ carrying fluorophore Act at the 3′-end (DNA TTCCGGAA-{code p-Act}; not fully specified; cysteine pairing not given here; reading uncertain; also: DNA oligonucleotide with 3'-phosphate-linked Act)", "assay_endpoint": "Tm(° C.)", "data_value": "47 °C"}

# lookup: duplex structure of DNA Tm(° C.), key = TTCCGGAA-p-Act-p-Qut-p-Qut: oligonucleotide 5′-TTCCGGAA-3′ carrying trimer Act-p-Qut-p-Qut at the 3′-end (DNA TTCCGGAA-{code p-Act-code p-Qut-code p-Qut}; not fully specified; cysteine pairing not given here; reading uncertain; also: DNA oligonucleotide with 3'-Act-p-Qut-p-Qut trimer) 44 °C
